The values you see were collected from the supplement of paper PMC10307832.

# System: BEN
# procedure-details: relative viability (nuclei count vs DMSO), 5 days (fraction); higher = more cells survive
# measurement-conditions: first compound 0.06325 µM
measure: relative viability
A bare number is all that is needed in reply.

molecule	endpoint-value
CCNC(=O)c1noc(-c2cc(C(C)C)c(O)cc2O)c1-c1ccc(CN2CCOCC2)cc1 [Luminespib] + C[C@@H](Oc1cc(-c2cnn(C3CCNCC3)c2)cnc1N)c1c(Cl)ccc(F)c1Cl [Crizotinib] (partner 1 µM)	0.341
CCNC(=O)c1noc(-c2cc(C(C)C)c(O)cc2O)c1-c1ccc(CN2CCOCC2)cc1 [Luminespib] + CC1(C)CCC(c2ccc(Cl)cc2)=C(CN2CCN(c3ccc(C(=O)NS(=O)(=O)c4ccc(N[C@H](CCN5CCOCC5)CSc5ccccc5)c(S(=O)(=O)C(F)(F)F)c4)cc3)CC2)C1 [Navitoclax] (partner 0.5 µM)	0.0655

Please look up its relative viability: CCNC(=O)c1noc(-c2cc(C(C)C)c(O)cc2O)c1-c1ccc(CN2CCOCC2)cc1 [Luminespib] + COc1cc2c(Oc3ccc(NC(=O)C4(C(=O)Nc5ccc(F)cc5)CC4)cc3F)ccnc2cc1OCCCN1CCOCC1 [Foretinib] (partner 0.25 µM)
0.531

// lookup relative viability for CCNC(=O)c1noc(-c2cc(C(C)C)c(O)cc2O)c1-c1ccc(CN2CCOCC2)cc1 [Luminespib] + N=C(N)NC(=N)NCCc1ccccc1 [Phenformin] (partner 250 µM)
0.216

Can you look up the measured relative viability of CCNC(=O)c1noc(-c2cc(C(C)C)c(O)cc2O)c1-c1ccc(CN2CCOCC2)cc1 [Luminespib] + CS(=O)(=O)N1CCN(Cc2cc3nc(-c4cccc5[nH]ncc45)nc(N4CCOCC4)c3s2)CC1 [Pictilisib] (partner 1 µM) for me?
0.266
